Target: Polyunsaturated fatty acid 5-lipoxygenase (Homo sapiens) (UniProt P09917)
Sequence (P09917 whole entry): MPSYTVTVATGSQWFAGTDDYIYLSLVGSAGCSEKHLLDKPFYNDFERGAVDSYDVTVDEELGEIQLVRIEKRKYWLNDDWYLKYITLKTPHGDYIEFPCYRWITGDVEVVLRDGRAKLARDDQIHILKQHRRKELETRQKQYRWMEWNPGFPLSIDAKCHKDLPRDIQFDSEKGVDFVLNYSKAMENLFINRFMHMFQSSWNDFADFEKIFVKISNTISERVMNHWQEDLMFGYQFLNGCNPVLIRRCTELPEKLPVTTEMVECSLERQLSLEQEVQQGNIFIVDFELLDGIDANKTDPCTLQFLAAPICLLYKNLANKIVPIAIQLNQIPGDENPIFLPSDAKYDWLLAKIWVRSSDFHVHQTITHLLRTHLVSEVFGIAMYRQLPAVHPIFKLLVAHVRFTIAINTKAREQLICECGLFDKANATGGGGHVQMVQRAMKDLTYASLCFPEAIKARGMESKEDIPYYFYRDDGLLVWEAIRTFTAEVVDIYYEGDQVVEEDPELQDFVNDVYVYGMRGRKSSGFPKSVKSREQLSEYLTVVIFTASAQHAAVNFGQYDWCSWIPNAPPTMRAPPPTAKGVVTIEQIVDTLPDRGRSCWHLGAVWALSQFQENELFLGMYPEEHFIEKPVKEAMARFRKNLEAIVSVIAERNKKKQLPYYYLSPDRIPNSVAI
Assay: Inhibition of 5-Lipoxygenase in arachidonic acid-stimulated human neutrophils assessed as residual activity at 10 uM after 15 mins by HPLC analysis in presence of A23187
Mark Condition met only for Activity values smaller than 30%; exact matches and larger values are Condition not met.

Say whether its Activity is strictly beneath 30%. Entry: CC(C)(C)c1ccc(CN2CCN(C(=O)CCc3cc(-c4ccc(C(F)(F)F)cc4)n(-c4ccccc4)n3)CC2)cc1
Condition met

Please do the same for O=C(CCc1cc(-c2ccc(F)cc2)n(-c2ccc(Cl)nn2)n1)N1CCN(C(=O)C2CCCO2)CC1 (stereo not drawn) as well.
Condition not met

Please do the same for Cc1ccc(-c2cc(CCC(=O)N3CCN(Cc4ccc(C(C)(C)C)cc4)CC3)nn2-c2ccc(Cl)cc2)cc1 as well.
Condition met

Please do the same for COc1ccc(-n2nc(CCC(=O)N3CCN(Cc4ccc(C(C)(C)C)cc4)CC3)cc2-c2ccc(C)cc2)nn1 as well.
Condition met

Please do the same for CCOC(=O)C1CCN(C(=O)CCc2cc(-c3ccc(C)cc3)n(-c3ccccc3)n2)CC1 as well.
Condition met

Please do the same for Cc1ccc(-c2cc(CCC(=O)N3CCN(Cc4ccc(C(C)(C)C)cc4)CC3)nn2-c2ccccc2)cc1 as well.
Condition met

Please do the same for Cc1ccc(-c2cc(CCC(=O)Oc3ccc(C(C)C)cc3)nn2-c2ccc(Cl)nn2)cc1 as well.
Condition not met

Please do the same for Cc1ccc(-c2cc(CCC(=O)Oc3ccc(Oc4ccc(C(F)(F)F)cc4)cc3)nn2-c2ccc(Cl)nn2)cc1 as well.
Condition not met

Please do the same for O=C(CCc1cc(-c2ccc(F)cc2)n(-c2ccc(Cl)nn2)n1)Oc1ccc(-n2ccnc2)cc1 as well.
Condition not met

Please do the same for CC(C)(C)c1ccc(CN2CCN(C(=O)CCc3cc(-c4ccc(F)cc4)n(-c4ccc5ccccc5n4)n3)CC2)cc1 as well.
Condition met

Please do the same for NC(=O)C1CCN(C(=O)CCc2cc(-c3ccc(C(F)(F)F)cc3)n(-c3ccc(Cl)nn3)n2)CC1 as well.
Condition not met

Please do the same for CC(C)(C)c1ccc(CN2CCN(C(=O)CCc3cc(-c4ccc(F)cc4)n(-c4ccc(Cl)cc4)n3)CC2)cc1 as well.
Condition met

Please do the same for CC(C)(C)c1ccc(CN2CCN(C(=O)CCc3cc(-c4ccc(C(F)(F)F)cc4)n(-c4ccc(Cl)cc4)n3)CC2)cc1 as well.
Condition not met

Please do the same for COc1ccc(-n2nc(CCC(=O)N3CCN(Cc4ccc(C(C)(C)C)cc4)CC3)cc2-c2ccc(F)cc2)nn1 as well.
Condition not met

Please do the same for CCCCCCCOc1ccc(OC(=O)CCc2cc(-c3ccc(F)cc3)n(-c3ccc(Cl)nn3)n2)cc1 as well.
Condition not met

Please do the same for O=C(CCc1cc(-c2ccc(F)cc2)n(-c2ccc(Cl)nn2)n1)Oc1ccc(-c2ccsc2)cc1 as well.
Condition not met

Please do the same for CC(C)(C)c1ccc(CN2CCN(C(=O)CCc3cc(-c4ccc(F)cc4)n(-c4ccc(Cl)nn4)n3)CC2)cc1 as well.
Condition met

Please do the same for Cc1ccc(-c2cc(CCC(=O)Nc3ccc(N4CCOCC4)nc3)nn2-c2ccc(Cl)nn2)cc1 as well.
Condition not met

Please do the same for Cc1ccc(-c2cc(CCC(=O)Oc3ccc(OC(F)(F)F)cc3)nn2-c2ccc(Cl)nn2)cc1 as well.
Condition not met

Please do the same for Cc1ccc(-c2cc(CCC(=O)N3CCN(CC4CCCO4)CC3)nn2-c2ccc(Cl)nn2)cc1 (stereo not drawn) as well.
Condition not met

Please do the same for Cc1ccc(-c2cc(CCC(=O)Oc3ccc(C(C)C)cc3)nn2-c2ccc3ccccc3n2)cc1 as well.
Condition not met

Please do the same for O=C(CCc1cc(-c2ccc(C(F)(F)F)cc2)n(-c2ccc(Cl)nn2)n1)Oc1ccc(-n2cccc2)cc1 as well.
Condition not met

Please do the same for CC(C)(C)c1ccc(CN2CCN(C(=O)CCc3cc(-c4ccc(F)cc4)n(-c4ccccc4)n3)CC2)cc1 as well.
Condition met

Please do the same for CCOC(=O)C1CCN(C(=O)CCc2cc(-c3ccc(C(F)(F)F)cc3)n(-c3ccc(Cl)nn3)n2)CC1 as well.
Condition not met

Please do the same for Cc1ccc(-c2cc(CCC(=O)Oc3ccc(C(C)C)cc3)nn2-c2ccccc2)cc1 as well.
Condition met

Please do the same for Cc1ccc(-c2cc(CCC(=O)N3CCN(Cc4ccc(C(C)(C)C)cc4)CC3)nn2-c2ccc(Cl)nn2)cc1 as well.
Condition met

Please do the same for COc1ccc(NC(=O)CCc2cc(-c3ccc(F)cc3)n(-c3ccc(Cl)nn3)n2)cc1 as well.
Condition not met

Please do the same for CC(C)(C)c1ccc(OC(=O)CCc2cc(-c3ccc(F)cc3)n(-c3ccc(Cl)nn3)n2)cc1 as well.
Condition not met
